- Tested on: GD4K-βNA
- test_method_notes: EP activity and kinetic study with specific substrate GD4K-βNA
- Assay type: biochemical
- cond: substrate GD4K-βna
measured_attribute: kcat (s⁻¹)
State the answer as a number, implicitly in s⁻¹.

Assign kcat to the following record: Bovine (Neb): bovine EP protease available from NEB (protein) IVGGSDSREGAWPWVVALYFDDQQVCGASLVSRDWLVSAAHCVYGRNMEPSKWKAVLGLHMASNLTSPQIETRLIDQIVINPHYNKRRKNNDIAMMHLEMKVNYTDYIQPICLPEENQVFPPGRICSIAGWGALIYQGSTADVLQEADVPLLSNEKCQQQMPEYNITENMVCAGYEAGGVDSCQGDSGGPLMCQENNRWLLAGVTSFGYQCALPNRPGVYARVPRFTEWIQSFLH
25
